# procedure text: Fragrance burst (perfume headspace) of single perfumes in 5% sodium laurate shower product diluted through the CMC
# Assay type: physicochemical
# condition details: diluted through the CMC (FIG. 3)
measure name: fragrance burst

Looking up C=C(C)[C@H]1CC=C(C)CC1 [Limonene] , I found its fragrance burst recorded as ~95%
